System: Orlando insecticide-susceptible strain of Ae. aegypti (female mosquitoes)
Assay: Glass tube spatial repellency assay
Type: in vivo, Aedes aegypti
Conditions: 10 μg/cm^2; horizontal tube; 0.5=0% repellency, 0=100% repellency
quantity: 30 min repellency ratio
// return just the number, without any unit appended

Would you please look over these solved cases?
| molecule | measured-target | 30 min repellency ratio |
| --- | --- | --- |
| O=Cc1cccc(O)c1 [3-hydroxybenzaldehyde] | Orlando insecticide-susceptible strain of Ae. aegypti (female mosquitoes) | 0.53 |
| C=Cc1cccc(C=O)c1 | Orlando insecticide-susceptible strain of Ae. aegypti (female mosquitoes) | 0.50 |
| Cc1cccc(C(N)=O)c1 [m-toluamide] | Orlando insecticide-susceptible strain of Ae. aegypti (female mosquitoes) | 0.50 |
| O=Cc1cccc(C(=O)O)c1 | Orlando insecticide-susceptible strain of Ae. aegypti (female mosquitoes) | 0.47 |
| O=Cc1cccc(Cl)c1 | Orlando insecticide-susceptible strain of Ae. aegypti (female mosquitoes) | 0.34 |
| CC(C)(C)c1cccc(C=O)c1 | Orlando insecticide-susceptible strain of Ae. aegypti (female mosquitoes) | 0.25 |

Answer briefly: 30 min repellency ratio recorded on Orlando insecticide-susceptible strain of Ae. aegypti (female mosquitoes) for O=Cc1cccc(C=O)c1
0.41

Answer briefly: 30 min repellency ratio recorded on Orlando insecticide-susceptible strain of Ae. aegypti (female mosquitoes) for O=Cc1cccc(-c2ccccc2)c1
0.38

###

# RR (PR EC50/OR EC50) per record follows
System: pyrethroid-resistant Puerto Rico (PR) strain of Ae. aegypti
Assay: Glass tube spatial repellency assay, resistant strain
Assay type: in vivo, Aedes aegypti
Conditions: repellency resistance ratio; compound alone

Would you please look over these solved cases?
| molecule | measured-target | RR (PR EC50/OR EC50) |
| --- | --- | --- |
| CC(C)[C@H](C(=O)O)c1ccc(Cl)cc1 [FVA, fenvalerate acid] | pyrethroid-resistant Puerto Rico (PR) strain of Ae. aegypti | 1.7 |
| CC(C)=C[C@@H]1[C@@H](C(=O)O)C1(C)C (relative stereo) [TCA, 1-R-trans-chrysanthemic acid] | pyrethroid-resistant Puerto Rico (PR) strain of Ae. aegypti | 1.9 |
| CC1(C)C(C=C(Cl)C(F)(F)F)C1C(=O)O (stereo not shown) [BFA, bifenthrin acid] | pyrethroid-resistant Puerto Rico (PR) strain of Ae. aegypti | 0.8 |

Identify measured RR (PR EC50/OR EC50) associated with CC1(C)[C@H](C=C(Cl)Cl)[C@H]1C(=O)OCc1c(F)c(F)cc(F)c1F [Transfluthrin, reference compound]
4.7

Identify measured RR (PR EC50/OR EC50) associated with CC(C)=CC1C(C(=O)O)C1(C)C (stereo not shown) [PhenA, phenothrin acid]
0.8

Identify measured RR (PR EC50/OR EC50) associated with CC=CC1C(C(=O)O)C1(C)C (stereo not shown) [MFA, metofluthrin acid]
1.3

Identify measured RR (PR EC50/OR EC50) associated with C/C=C/C1C(C(=O)OCc2c(F)c(F)c(COC)c(F)c2F)C1(C)C (stereo not shown) [Metofluthrin, reference compound]
60

###

# EC50 (95% CL), repellency of TFA esters per record follows
Tested on: Orlando insecticide-susceptible strain of Ae. aegypti (female mosquitoes)
Test: Glass tube spatial repellency assay
Format: in vivo, Aedes aegypti
Settings: 1 hr exposures; Ae. aegypti females

| smiles-entry | measured-target | quantity | observed |
| --- | --- | --- | --- |
| CC1(C)[C@H](C=C(Cl)Cl)[C@H]1C(=O)OC1CCCC1 | Orlando insecticide-susceptible strain of Ae. aegypti (female mosquitoes) | EC50 (95% CL), repellency of TFA esters | 11 (8-15) μg/cm^2 |
| CCCCCOC(=O)[C@@H]1[C@@H](C=C(Cl)Cl)C1(C)C | Orlando insecticide-susceptible strain of Ae. aegypti (female mosquitoes) | EC50 (95% CL), repellency of TFA esters | 10 (7-15) μg/cm^2 |
| CC1(C)[C@H](C=C(Cl)Cl)[C@H]1C(=O)OC1CCC1 | Orlando insecticide-susceptible strain of Ae. aegypti (female mosquitoes) | EC50 (95% CL), repellency of TFA esters | 17 (11-27) μg/cm^2 |

Kindly consider the entry below.
Identify measured EC50 (95% CL), repellency of TFA esters associated with CC1(C)[C@H](C=C(Cl)Cl)[C@H]1C(=O)OC1CC1
8.5 (5-13) μg/cm^2

The reported numbers originate from patent US20220304307A1.
